// data source = patent US20140349970A1

# IC50 per record follows
Target: Syk catalytic domain (aa 356-635 with a C-terminal His-tag) (Homo sapiens)
Construct: His-tag (C); made in house
Assay: In vitro Syk kinase activity measured by trFRET, Syk catalytic domain
Assay type: biochemical
Details: Syk catalytic domain (aa 356-635), trFRET, 0.001 mM ATP

[
  {
    "MOLECULE": "Cn1ncc2cnc3[nH]c(-c4ccc(OCCCN5CCOCC5)cc4)cc3c21",
    "TARGET_OR_TEST_SYSTEM": "Syk catalytic domain (aa 356-635 with a C-terminal His-tag) (Homo sapiens)",
    "IC50": "< 100 nM"
  },
  {
    "MOLECULE": "COc1ccc(-c2cc3c(ncc4cnc(C)n43)[nH]2)cc1",
    "TARGET_OR_TEST_SYSTEM": "Syk catalytic domain (aa 356-635 with a C-terminal His-tag) (Homo sapiens)",
    "IC50": "< 100 nM"
  },
  {
    "MOLECULE": "COc1ccc2c(c1)c(-c1cc3c(ncc4cnn(C)c43)[nH]1)cn2CC(O)CO (stereo not drawn)",
    "TARGET_OR_TEST_SYSTEM": "Syk catalytic domain (aa 356-635 with a C-terminal His-tag) (Homo sapiens)",
    "IC50": "< 100 nM"
  },
  {
    "MOLECULE": "CN(CC(C)(C)CO)C(=O)c1ccc2c(c1)c(-c1cc3c(ncc4cnn(C)c43)[nH]1)cn2C",
    "TARGET_OR_TEST_SYSTEM": "Syk catalytic domain (aa 356-635 with a C-terminal His-tag) (Homo sapiens)",
    "IC50": "< 100 nM"
  },
  {
    "MOLECULE": "CS(=O)(=O)c1ccc(-c2nc(CC3CNCCO3)n3c2cnc2[nH]ccc23)cc1 (stereo not drawn)",
    "TARGET_OR_TEST_SYSTEM": "Syk catalytic domain (aa 356-635 with a C-terminal His-tag) (Homo sapiens)",
    "IC50": "100 to 1000 nM"
  },
  {
    "MOLECULE": "CCc1c(-c2ccc3c(ccn3C)c2)[nH]c2ncc3cnn(C)c3c12",
    "TARGET_OR_TEST_SYSTEM": "Syk catalytic domain (aa 356-635 with a C-terminal His-tag) (Homo sapiens)",
    "IC50": "1000 to 10000 nM"
  },
  {
    "MOLECULE": "COCCC(=O)N1CCCC(c2nc(-c3ccc(S(C)(=O)=O)cc3)c3cnc4[nH]ccc4n23)C1 (stereo not drawn)",
    "TARGET_OR_TEST_SYSTEM": "Syk catalytic domain (aa 356-635 with a C-terminal His-tag) (Homo sapiens)",
    "IC50": "1000 to 10000 nM"
  },
  {
    "MOLECULE": "CN(C)C(=O)c1ccc2c(-c3cc4c(ncc5cnn(C)c54)[nH]3)cn(C)c2c1",
    "TARGET_OR_TEST_SYSTEM": "Syk catalytic domain (aa 356-635 with a C-terminal His-tag) (Homo sapiens)",
    "IC50": "< 100 nM"
  },
  {
    "MOLECULE": "CC(C)(O)c1ccc(-c2nc(CN3CCCNCC3)n3c2cnc2[nH]ccc23)cc1",
    "TARGET_OR_TEST_SYSTEM": "Syk catalytic domain (aa 356-635 with a C-terminal His-tag) (Homo sapiens)",
    "IC50": "100 to 1000 nM"
  }
]
